All figures here come from patent US20090311237A1.

Test: Phase 1 Stage 1 clinical pharmacokinetics of SC ZA co-administered with rHuPH20
Format: in vivo, human
Conditions: human, serum, sc, ZA 0.25 mg SC + 24000 U rHuPH20; median, n=3
assayMetric: CL/F (mL/min/kg)

INSERT INTO measurements (compound, endpointresult) VALUES
  ('O=P(O)(O)C(O)(Cn1ccnc1)P(=O)(O)O [ZA]', 1.8);

###

Experiment: Phase 1 Stage 1 clinical pharmacokinetics of SC ZA co-administered with rHuPH20
Format: in vivo, human
Conditions: human, serum, sc, serum; ZA 1 mg SC infusion + 24000 Units rHuPH20; 0 h post infusion; individual subjects; read-out: Zoledronic Acid Concentration
assayMetric: concentration at 0 h (ng/mL)

INSERT INTO measurements (cpdsmiles, endpointresult) VALUES
  ('O=P(O)(O)C(O)(Cn1ccnc1)P(=O)(O)O', 28.4);
